- Test system: HEK-293T
- Experiment description: Multiplex assay against HEK293T;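 also: share of the cells with healthy nuclei that show this phenotype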
- Assay type: toxicity, cell-based
- Setup conditions: human, 12 h, 1 µM, compound concentration 1 uM, replicate 2
Parameter measured: Population Tubulin-Different-Phenotype (%)
Write the number in % without appending the unit.

Can you look up the measured Population Tubulin-Different-Phenotype (%) of Cn1nc(C(F)(F)F)cc1-c1cnc(N2CCc3cc(S(=O)(=O)Nc4c(F)cc(Cl)cc4F)cc(N4CCCC4=O)c32)nc1 for me?
37

Can you look up the measured Population Tubulin-Different-Phenotype (%) of Cc1cn(-c2cc(NC(=O)c3ccc(C)c(Nc4nccc(-c5cccnc5)n4)c3)cc(C(F)(F)F)c2)cn1 for me?
15

Can you look up the measured Population Tubulin-Different-Phenotype (%) of CCOc1cc(C(=O)N2CCC(N3CCN(C)CC3)CC2)ccc1Nc1ncc2c(n1)N(C1CCCC1)c1ccccc1C(=O)N2C for me?
79

Can you look up the measured Population Tubulin-Different-Phenotype (%) of C=CCn1c(=O)c2cnc(Nc3ccc(N4CCN(C)CC4)cc3)nc2n1-c1cccc(C(C)(C)O)n1 for me?
15

Can you look up the measured Population Tubulin-Different-Phenotype (%) of COc1ccc(-c2ccc3c(N4CCOCC4)nc(N4C[C@@H](C)O[C@@H](C)C4)nc3n2)cc1CO for me?
5

Can you look up the measured Population Tubulin-Different-Phenotype (%) of CCCS(=O)(=O)Nc1ccc(F)c(C(=O)c2c[nH]c3ncc(Cl)cc23)c1F for me?
14

Can you look up the measured Population Tubulin-Different-Phenotype (%) of Cc1cc(C)c(S(=O)(=O)N(Cc2ccc(-c3cccc(S(C)(=O)=O)c3)cc2)Cc2ccc(C(F)(F)F)o2)c(C)c1 for me?
9

Can you look up the measured Population Tubulin-Different-Phenotype (%) of CCN1CCN(Cc2ccc(Nc3ncc(F)c(-c4cc(F)c5nc(C)n(C(C)C)c5c4)n3)nc2)CC1.CS(=O)(=O)O for me?
81

Can you look up the measured Population Tubulin-Different-Phenotype (%) of COc1cccc2cc(-c3nc([C@H]4CC[C@H](C(=O)O)CC4)n4ncnc(N)c34)[nH]c12 for me?
10

Can you look up the measured Population Tubulin-Different-Phenotype (%) of C[C@H]1Oc2cc(cnc2N)-c2c(nn(C)c2C#N)CN(C)C(=O)c2ccc(F)cc21 for me?
9

Can you look up the measured Population Tubulin-Different-Phenotype (%) of C=C1/C(=C\C=C2/CCC[C@]3(C)[C@@H]([C@H](C)/C=C/[C@H](C)C(C)C)CC[C@@H]23)C[C@@H](O)C[C@@H]1O for me?
11

Can you look up the measured Population Tubulin-Different-Phenotype (%) of COc1ccc(S(=O)(=O)N(CCO)c2ccccc2CN(C)C/C=C/c2ccc(Cl)cc2)cc1.O=P(O)(O)O for me?
90

Can you look up the measured Population Tubulin-Different-Phenotype (%) of CCOc1cc2ncc(C#N)c(Nc3ccc(OCc4ccccn4)c(Cl)c3)c2cc1NC(=O)/C=C/CN(C)C for me?
15

Can you look up the measured Population Tubulin-Different-Phenotype (%) of O=C1N/C(=N/c2ccccc2F)S/C1=C\c1ccc(C(=O)O)cc1 for me?
6

Can you look up the measured Population Tubulin-Different-Phenotype (%) of CCCn1c(=O)c2[nH]c(-c3cnn(Cc4cccc(C(F)(F)F)c4)c3)nc2n(CC)c1=O for me?
22

Can you look up the measured Population Tubulin-Different-Phenotype (%) of COC(=N)c1nc2ccc3ncnc(Nc4ccc(OC)cc4F)c3c2s1 for me?
9

Can you look up the measured Population Tubulin-Different-Phenotype (%) of COc1cc2ncnc(Nc3ccc(F)c(Cl)c3)c2cc1NC(=O)/C=C/CN1CCCCC1 [DACOMITINIB ANHYDROUS] for me?
66

Can you look up the measured Population Tubulin-Different-Phenotype (%) of O=C(Cc1ccc(-c2ccc(OCCN3CCOCC3)cc2)cn1)NCc1ccccc1 for me?
11

Can you look up the measured Population Tubulin-Different-Phenotype (%) of O=C1NC(=O)C(c2cnc3ccccn23)=C1c1cn2c3c(cc(F)cc13)CN(C(=O)N1CCCCC1)CC2 for me?
61

Can you look up the measured Population Tubulin-Different-Phenotype (%) of CN1C2CCC1CC(OC(c1ccc(F)cc1)c1ccc(F)cc1)C2.Cl (configuration not stated) for me?
56

Can you look up the measured Population Tubulin-Different-Phenotype (%) of CN1CCC(=C2c3ccccc3CC(=O)c3sccc32)CC1.O=C(O)/C=C/C(=O)O [KETOTIFEN FUMARATE] for me?
28

Can you look up the measured Population Tubulin-Different-Phenotype (%) of Cc1ccc2nc(NCCN)c3ncc(C)n3c2c1.O=C(O)C(F)(F)F.O=C(O)C(F)(F)F for me?
5

Can you look up the measured Population Tubulin-Different-Phenotype (%) of Cl.O=C(c1ccc(Nc2nccc(-c3cc4ccccc4s3)n2)cc1)N1CCC(N2CCCC2)CC1 for me?
67

Can you look up the measured Population Tubulin-Different-Phenotype (%) of COc1cc(N2CCN(C)CC2)ccc1Nc1ncc2c(n1)N(C)c1ccccc1C(=O)N2C for me?
23

Can you look up the measured Population Tubulin-Different-Phenotype (%) of CCN1CCN(c2ccc(Nc3cc(N(C)C(=O)Nc4c(Cl)c(OC)cc(OC)c4Cl)ncn3)cc2)CC1 for me?
81

Can you look up the measured Population Tubulin-Different-Phenotype (%) of O=C(Nc1ccc(-c2ccnc(Nc3ccc(N4CCOCC4)cc3)n2)cc1)[C@@H]1CCCN1 for me?
30

Can you look up the measured Population Tubulin-Different-Phenotype (%) of CCCS(=O)(=O)c1nc(NC2CC2)cc(-c2ccc3c(ccn3C3CC(C)(C)NC(C)(C)C3)c2)n1 for me?
45

Can you look up the measured Population Tubulin-Different-Phenotype (%) of CNc1cc(Oc2cc(C(=O)Nc3cc(N4CCN(C)CC4)cc(C(F)(F)F)c3)ccc2C)ncn1 for me?
76

Can you look up the measured Population Tubulin-Different-Phenotype (%) of S=C(NCCCc1c[nH]cn1)NCCCN(Cc1ccc(Cl)c(Cl)c1)c1ccc(Br)cn1 for me?
54

Can you look up the measured Population Tubulin-Different-Phenotype (%) of CN([C@@H](Cc1ccc(OS(=O)(=O)c2cccc3cnccc23)cc1)C(=O)N1CCN(c2ccccc2)CC1)S(=O)(=O)c1cccc2cnccc12 for me?
97

Can you look up the measured Population Tubulin-Different-Phenotype (%) of CN(C)C(=O)C(CCN1CCC(O)(c2ccc(Cl)cc2)CC1)(c1ccccc1)c1ccccc1.Cl [LOPERAMIDE HYDROCHLORIDE] for me?
85

Can you look up the measured Population Tubulin-Different-Phenotype (%) of CCn1cc(-c2ccnc3[nH]c(-c4cccc(CN(C)C)c4)cc23)c(-c2ccc(NC(=O)N(C)C)cc2)n1 for me?
36

* * *

- Tested on: U2OS
- Experiment description: Multiplex assay against U2OS
- Type: toxicity, cell-based
- Setup conditions: human, 12 h, 1 µM, compound concentration 1 uM, replicate 2
Parameter measured: Population Membrane Permeable-Phenotype (%)
Write the number in % without appending the unit.

Can you look up the measured Population Membrane Permeable-Phenotype (%) of COc1cc2ncnc(Nc3ccc(F)c(Cl)c3)c2cc1NC(=O)/C=C/CN1CCCCC1 [DACOMITINIB ANHYDROUS] for me?
24

Can you look up the measured Population Membrane Permeable-Phenotype (%) of Cc1cc(C)c(S(=O)(=O)N(Cc2ccc(-c3cccc(S(C)(=O)=O)c3)cc2)Cc2ccc(C(F)(F)F)o2)c(C)c1 for me?
3

Can you look up the measured Population Membrane Permeable-Phenotype (%) of C=CCn1c(=O)c2cnc(Nc3ccc(N4CCN(C)CC4)cc3)nc2n1-c1cccc(C(C)(C)O)n1 for me?
13

Can you look up the measured Population Membrane Permeable-Phenotype (%) of CCOC(=O)c1c(C)[nH]c2ccc3c(c12)CN1CCc2cc(OC)ccc2C1O3 (stereo not given) for me?
3

Can you look up the measured Population Membrane Permeable-Phenotype (%) of CN1CCC(=C2c3ccccc3CC(=O)c3sccc32)CC1.O=C(O)/C=C/C(=O)O [KETOTIFEN FUMARATE] for me?
10

* * *

- Tested on: Fibroblast
- Experiment description: Multiplex assay against human fibroblast
- Assay type: toxicity, cell-based
- Setup conditions: 24 h, 10 µM, compound concentration 10 uM, replicate 1
Would you kindly list Population Healthy Nuclei (%) for each of these compounds?
Write the number in % without appending the unit.

Can you look up the measured Population Healthy Nuclei (%) of CCn1c(=O)c(-c2ccc(-c3cncs3)cc2Cl)cc2cnc(Nc3ccc(N4CCN(C)CC4)cc3)nc21 for me?
6

Can you look up the measured Population Healthy Nuclei (%) of Cc1cc(C)c(S(=O)(=O)N(Cc2ccc(-c3cccc(S(C)(=O)=O)c3)cc2)Cc2ccc(C(F)(F)F)o2)c(C)c1 for me?
46

Can you look up the measured Population Healthy Nuclei (%) of Cc1ccc(C(=O)Nc2cccc(C(F)(F)F)c2)cc1Nc1nc(-c2cccnc2)nc2c1cnn2C for me?
34

Can you look up the measured Population Healthy Nuclei (%) of O=C(Cc1ccc(-c2ccc(OCCN3CCOCC3)cc2)cn1)NCc1ccccc1 for me?
37
